biological target: HER2 V777L (Homo sapiens, UniProt P04626, V777L); test: In vitro inhibition of HER2 V777L kinase activity; settings: FIG. 2B
Sequence (P04626 23-1255 V777L): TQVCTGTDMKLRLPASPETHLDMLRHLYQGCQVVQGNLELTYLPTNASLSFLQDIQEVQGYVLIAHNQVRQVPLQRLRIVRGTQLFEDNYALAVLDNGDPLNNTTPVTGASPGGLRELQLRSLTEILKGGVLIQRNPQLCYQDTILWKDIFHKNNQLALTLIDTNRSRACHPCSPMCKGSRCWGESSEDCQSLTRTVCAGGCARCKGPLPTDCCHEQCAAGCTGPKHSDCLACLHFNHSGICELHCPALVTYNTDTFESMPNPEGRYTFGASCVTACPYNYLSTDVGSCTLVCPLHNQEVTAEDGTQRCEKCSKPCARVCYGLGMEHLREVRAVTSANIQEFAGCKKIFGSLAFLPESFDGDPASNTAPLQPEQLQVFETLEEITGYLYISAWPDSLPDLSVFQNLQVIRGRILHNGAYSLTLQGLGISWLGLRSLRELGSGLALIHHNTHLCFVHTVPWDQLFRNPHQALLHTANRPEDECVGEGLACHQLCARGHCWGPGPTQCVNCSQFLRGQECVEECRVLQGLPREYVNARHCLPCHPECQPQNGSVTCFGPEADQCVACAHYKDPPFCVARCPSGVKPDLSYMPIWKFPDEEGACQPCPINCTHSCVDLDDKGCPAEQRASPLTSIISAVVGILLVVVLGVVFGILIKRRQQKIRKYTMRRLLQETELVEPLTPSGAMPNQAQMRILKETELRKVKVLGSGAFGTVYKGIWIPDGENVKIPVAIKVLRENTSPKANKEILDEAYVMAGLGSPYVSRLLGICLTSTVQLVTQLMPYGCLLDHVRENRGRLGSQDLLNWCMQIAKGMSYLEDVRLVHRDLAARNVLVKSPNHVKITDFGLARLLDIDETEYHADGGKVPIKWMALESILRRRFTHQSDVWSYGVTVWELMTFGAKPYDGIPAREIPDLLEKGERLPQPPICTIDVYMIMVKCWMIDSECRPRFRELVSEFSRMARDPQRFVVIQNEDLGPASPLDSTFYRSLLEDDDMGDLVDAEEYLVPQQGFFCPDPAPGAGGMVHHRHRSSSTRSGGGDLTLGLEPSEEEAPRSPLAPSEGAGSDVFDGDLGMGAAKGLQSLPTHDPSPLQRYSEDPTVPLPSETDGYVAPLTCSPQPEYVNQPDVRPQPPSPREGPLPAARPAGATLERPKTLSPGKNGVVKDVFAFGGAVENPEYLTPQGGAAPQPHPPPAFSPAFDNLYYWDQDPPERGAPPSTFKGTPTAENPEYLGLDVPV
Experimental Readout: IC50 (nM)
Quick note: give the figure in nM, leave out the unit.

# query: IC50 of entry Cc1cc(Nc2ncnc3ccc(NC4=NC(C)(C)CO4)cc23)ccc1Oc1ccn2ncnc2c1 [Tucatinib, tucatinib]
71.2
